# ASSAY_INFO: Acute toxicity (LD50, Table 1)
# Parameters: species or system white rats and white mice
# CONDITION: in vivo, ip; confidence limits in parentheses, P = 0.05; second ED50 column of Table 1
Counter-ions that a name gives are not always drawn.
ASSAY_READOUT: LD50
Please answer in the form of a number followed by its unit of measurement.

Enquiry: Identify the reported LD50 for the following entry. CCC1(NC)C(=O)c2ccccc2C1=O [Metindione, hydrochloride]
Return: 415 mg/kg

The values you see were collected from patent US3980707A.
